# Tested on: PC-3
# Assay name: Cytotoxicity against human PC3 cells assessed as reduction in cell viability after 72 hrs by MTT assay
# Type: functional, cell-based
# Measurement setup: PC-3, 72 h
Quantity name: IC50 (µM)
Give just the numeric value; µM need not be written.

Example entries and their recorded answers appear below.
COC(=O)[C@]1(C)CCC[C@]2(C)c3ccc(C(C)C)c(NC(=O)Cn4cc(-c5ccc6ccccc6c5)nn4)c3CC[C@@H]12 : 9.1
O=c1[nH]cc(F)c(=O)[nH]1 [FLUOROURACIL] : 13.7
COC(=O)[C@]1(C)CCC[C@]2(C)c3ccc(C(C)C)c(NC(=O)Cn4cc([Si](C)(C)C)nn4)c3CC[C@@H]12 : 94.3
COC(=O)[C@]1(C)CCC[C@]2(C)c3ccc(C(C)C)c(NC(=O)Cn4cc(-c5ccccc5F)nn4)c3CC[C@@H]12 : 8.7
CCOC(=O)c1cn(CC(=O)Nc2c(C(C)C)ccc3c2CC[C@H]2[C@](C)(C(=O)OC)CCC[C@]32C)nn1 : 15.4

Please turn your attention to the following entry.
State its IC50 on PC-3: COC(=O)[C@]1(C)CCC[C@]2(C)c3ccc(C(C)C)c(NC(=O)Cn4cc(-c5ccc(OC)cc5)nn4)c3CC[C@@H]12 1.9
